# System: BT-549
# test_protocol: normalised viability (% of control), CellTiter-Blue; higher = more viable cells (about 100 = DMSO control)
# condition_summary: 10 nM; incubation time: 72 h
recorded_endpoint: normalised viability (%)

* COc1cc2/c(=N/c3ccc(Br)cc3F)nc[nH]c2cc1OCC1CCN(C)CC1 | 102
* COC(=O)c1ccc2c(c1)NC(=O)/C2=C(\Nc1ccc(N(C)C(=O)CN2CCN(C)CC2)cc1)c1ccccc1 | 105
* O=C(Nc1cccnc1)N1CCC(Cc2cccc(Oc3ccc(C(F)(F)F)cn3)c2)CC1 | 93.3
* CN(C)CCOc1ccc(/C(=C(/CCCl)c2ccccc2)c2ccccc2)cc1 | 106
* CN(C)c1nc(N(C)C)nc(N(C)C)n1 | 89.3
* COCC[n+]1c2c(n(Cc3cnccn3)c1C)C(=O)c1ccccc1C2=O | 83
* Cc1ccc(NC(=O)c2ccc(CN3CCN(C)CC3)cc2)cc1Nc1nc(-c2cccnc2)cs1 | 94.2

----------
# Test system: MFM-223
# test_protocol: normalised response (% of control), CellTox Green; higher = less cell death (100 = DMSO, 0 = benzethonium chloride kill control)
# condition_summary: incubation time: 72 h
The reader will find reported normalised response values listed item by item below.
recorded_endpoint: normalised response (%)

- Oc1ccc2c(c1)CC[C@H](c1ccccc1)[C@@H]2c1ccc(OCCN2CCCC2)cc1 [Lasofoxifene] (1000 nM): 95.5
- S=P(N1CC1)(N1CC1)N1CC1 [Thio-TEPA] (50000 nM): 77.7
- CCOC(=O)CCNc1cc(N2CCc3ccccc3CC2)nc(-c2ccccn2)n1 [GSK-J4] (100000 nM): -2.28
- CNC(=O)c1cccc(-c2ccc3c(N4CCOC[C@@H]4C)nc(N4CCOC[C@@H]4C)nc3n2)c1 [AZD2014] (1000 nM): 61.1
- CCn1c(-c2nonc2N)nc2cnc(Oc3cccc(NC(=O)c4ccc(OCCN5CCOCC5)cc4)c3)cc21 (10000 nM): 93.6
- CNC(=O)c1cc(Oc2ccc(NC(=O)Nc3ccc(Cl)c(C(F)(F)F)c3)c(F)c2)ccn1 [Regorafenib] (100 nM): 88.1
- Cc1[nH]c2ccccc2c1CCNCc1ccc(/C=C/C(=O)NO)cc1 [Panobinostat] (10 nM): 94.9
- NC(=O)c1ccc(I)c([N+](=O)[O-])c1 [Iniparib] (10000 nM): 95.6

----------
# System: HDQ-P1
# test_protocol: drug sensitivity score (DSS), CellTiter-Glo (DSS (AUC-based score)); higher = stronger drug effect (viability inhibition or cytotoxicity); extreme values may be limits of the assay
# condition_summary: incubation time: 72 h
recorded_endpoint: drug sensitivity score

• Cc1[nH]c2ccccc2c1CCNCc1ccc(/C=C/C(=O)NO)cc1 = 8.41
• N#Cc1ccc(COC[C@H]2O[C@@H](n3c(NCc4ccc(Cl)c(Cl)c4)nc4c(N)ncnc43)[C@H](O)[C@@H]2O)cc1 = 1.31
• Oc1ccc2c(c1)CC[C@H](c1ccccc1)[C@@H]2c1ccc(OCCN2CCCC2)cc1 = 0
• Nc1cc(C(F)(F)F)c(-c2cc(N3CCOCC3)nc(N3CCOCC3)n2)cn1 = 6.14
• C=C1C[C@@H]2[C@H](CC[C@]3(C)C(=O)CC[C@@H]23)[C@@]2(C)C=CC(=O)C=C12 = 0
• CN(C)c1nc(N(C)C)nc(N(C)C)n1 = 0
• COc1cc2ncnc(Nc3ccc(F)c(Cl)c3)c2cc1OCCCN1CCOCC1 = 7.21
• CC(C)C[C@@H](C(=O)N[C@H](C(=O)OC1CCCC1)c1ccccc1)[C@H](O)C(=O)NO = 5.25
• O=C(/C=C/c1cccc(S(=O)(=O)Nc2ccccc2)c1)NO = 8.05
• NC(=O)c1ccc(I)c([N+](=O)[O-])c1 = 0
